- SYSTEM: human Kv7.2 (Homo sapiens (Human), UniProt O43526)
- TEST: SyncroPatch 384 electrophysiology, activation of Kv7.2 in CHO cells
- CONDITION_PARAMETERS: CHO cells stably expressing human Kv7.2; potassium current at -90 mV repolarizing step, in presence of zinc pyrithione
RECORDED_METRIC: EC50 (µM)

Guide cases for EC50, answers given:
1) COC[C@@H](Oc1cc(CNC(=O)N[C@@H]2C[C@H]2C(F)(F)F)ccn1)C(F)(F)F (mixture of isomers) ... 0.36
2) CC(F)(F)[C@@H]1C[C@H]1NC(=O)NCc1ccnc(OC(F)F)c1 (racemic) ... 0.33
3) O=C(NCc1ccnc(OC(F)F)c1)N[C@@H]1C[C@H]1C(F)(F)F ... 0.23
4) O=C(NCc1ccnc(-n2cnc(C(F)(F)F)c2)c1)N[C@@H]1C[C@H]1c1ccccc1 ... 0.5
5) O=C(NCc1ccnc(-n2cccn2)c1)N[C@@H]1C[C@H]1c1ccccc1 (racemic) [Example 12] ... 0.67

[P] O=C(NCc1ccnc(-n2ccnc2)c1)NC1CC1C1CCCCC1 (stereo not drawn)
[Q] O=C(NCc1ccnc(-n2ccc(C(F)(F)F)n2)c1)N[C@@H]1C[C@H]1c1ccccc1
[R] C[C@@]1(NC(=O)NCc2ccnc(OC(F)F)c2)C[C@H]1c1ccccc1 (racemic)
[S] C[C@@H]1C[C@H]1NC(=O)NCc1ccnc(OC(F)F)c1 (racemic)
Put the items in order so that reported EC50 rises from first to last. Answer by listing the labels in the order asked for. Q, R, S, P
(Q: 0.07 µM, R: 0.12 µM, S: 0.9 µM, P: 2.14 µM)

Cited source: patent US20240336571A1
